Biological target: DDR2 (Homo sapiens, UniProt Q16832)
Construct: purchased Life Technologies
Sequence (Q16832 22-855): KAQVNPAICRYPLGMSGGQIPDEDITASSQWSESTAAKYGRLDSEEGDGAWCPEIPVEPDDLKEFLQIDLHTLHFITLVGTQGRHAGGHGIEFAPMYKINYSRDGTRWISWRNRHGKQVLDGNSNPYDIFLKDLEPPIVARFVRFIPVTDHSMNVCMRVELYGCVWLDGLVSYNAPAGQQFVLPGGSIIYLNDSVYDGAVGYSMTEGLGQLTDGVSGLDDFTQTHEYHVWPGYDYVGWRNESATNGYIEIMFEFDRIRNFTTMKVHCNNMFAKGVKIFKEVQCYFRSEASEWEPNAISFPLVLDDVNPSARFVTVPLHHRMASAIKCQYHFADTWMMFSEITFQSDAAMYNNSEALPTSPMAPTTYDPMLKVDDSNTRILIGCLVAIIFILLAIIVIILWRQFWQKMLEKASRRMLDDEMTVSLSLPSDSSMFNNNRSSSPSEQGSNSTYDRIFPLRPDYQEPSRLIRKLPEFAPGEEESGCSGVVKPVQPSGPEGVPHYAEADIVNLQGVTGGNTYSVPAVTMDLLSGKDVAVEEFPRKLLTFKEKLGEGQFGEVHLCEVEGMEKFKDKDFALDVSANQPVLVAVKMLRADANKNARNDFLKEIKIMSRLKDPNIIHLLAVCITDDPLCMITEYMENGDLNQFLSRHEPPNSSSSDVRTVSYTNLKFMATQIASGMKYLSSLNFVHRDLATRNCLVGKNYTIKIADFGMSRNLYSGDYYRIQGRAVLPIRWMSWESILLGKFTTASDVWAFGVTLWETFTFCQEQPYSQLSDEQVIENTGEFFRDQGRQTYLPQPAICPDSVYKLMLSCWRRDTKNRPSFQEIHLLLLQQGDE
Assay: LanthaScreen Europium Kinase Binding assay, DDR2
Conditions: 5 nM DDR2, 10 nM Kinase Tracer 178, 1 h at rt; Ki from IC50 by Cheng-Prusoff; read-out: Ki DDR2
Let's look at some compounds and their measured Ki.

>  <RECORD SMILES>
COc1ccn2ncc(C(=O)N3CC4(CC(N(C)C(=O)Nc5cncc(C(F)(F)F)c5)C4)C3)c2c1

>  <MEASURED TARGET>
DDR2 (Homo sapiens, UniProt Q16832)

>  <EXPERIMENTAL ENDPOINT>
Ki

>  <EXPERIMENTAL VALUE>
5 to 25 nM

$$$$

input: Recorded Ki for O=C(Nc1cccc(C(F)(F)F)c1)NC1CC2(C1)CN(C(=O)c1cnc3[nH]ccc3c1)C2 , please?
output: 25 to 100 nM

input: Now consider Cn1ccn2ncc(C(=O)N3CC4(CC(NC(=O)Nc5cc(C#N)cc(S(F)(F)(F)(F)F)c5)C4)C3)c12 and answer again.
output: < 5 nM

input: What do you get for Cc1ccc(C(F)(F)F)cc1NC(=O)OC1CC2(C1)CN(C(=O)c1cnn3ccn(C)c13)C2 ?
output: < 5 nM

input: Please answer likewise for COc1ccc(OC(F)(F)F)cc1NC(=O)N(C)C1CC2(C1)CN(C(=O)c1ncnc3ccsc13)C2
output: 5 to 25 nM

input: Can you handle Cn1ccn2ncc(C(=O)N3CC4(CC(NC(=O)Nc5cncc(C(F)(F)F)c5)C4)C3)c12 next?
output: 5 to 25 nM

input: Please do the same for Cn1ccn2ncc(C(=O)N3CC4(CC(NC(=O)Nc5cc(C(F)(F)F)ncn5)C4)C3)c12 as well.
output: 5 to 25 nM

input: Proceed to CN(C(=O)Nc1cncc(C(F)(F)F)c1)C1CC2(C1)CN(C(=O)c1cnn3cc(-c4ccncc4)ccc13)C2
output: 5 to 25 nM

input: What do we get for COc1ncc(C(F)(F)F)cc1NC(=O)NC1CC2(C1)CN(C(=O)c1cnn3ccn(C)c13)C2 ?
output: 5 to 25 nM

input: Another compound: CN(C(=O)Nc1cc(CC(F)(F)F)ccn1)C1CC2(C1)CN(C(=O)c1cnn3ccn(C)c13)C2
output: 5 to 25 nM

input: What do you have for O=C(Nc1cccc(C(F)(F)F)c1)NC1CC2(C1)CN(C(=O)c1ncnc3sccc13)C2 ?
output: 5 to 25 nM

input: Now consider CN(C(=O)Nc1cccc(CC(F)(F)F)c1)C1CC2(C1)CN(C(=O)c1cnn3ccn(C)c13)C2 and answer again.
output: 5 to 25 nM
